Below, each entry is listed with its recorded TGI.
Test system: HOP-62 NSCLC
Experiment: NCI tumour cell line growth inhibition, 48 h

Worked examples, 3 compounds total:
1) COc1ccc2c(CCC(c3ccccc3)c3ccccc3)c3[n+](cc2c1OC)CCc1cc2c(cc1-3)OCO2; 1.8 µM
2) COc1cc2c(cc1OC)C(=O)/C(=C/c1ccccc1)CC2; > 100 µM
3) COc1ccc2c(c1)O[C@@H]1c3ccc(OC)cc3OC[C@H]21; > 100 µM

Attention now shifts to the item below.
Exercise: Supply reported TGI belonging to this compound: COC1C(CO)OC(n2c3ccccc3c3c4c(c5c6ccccc6[nH]c5c32)C(=O)NC4=O)C(OC(=O)C(N)CCCCN)C1O (centres undefined)
Key: 2.4 µM
